Where do the numbers come from? From PubChem BioAssay AID1159580.

- experimental-protocol: chemical genetic growth profiling, strain panel (AID 1159580);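 also: tested at 20 µM; growth read once vehicle control cultures reached saturation at 30 °C; 1 = growth at the plate median or of vehicle wells; lower values mean less growth of the strain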
- condition-set: S. cerevisiae deletion strains, growth OD, locus YOR080W, strain dia2, active compounds read low
The whole screen tested about 5,500 compounds, of which about 2,000 (36%) were called active. Inconclusive results (about 18%) are left out. Some of the results follow.
// classify: if (normalized growth < 1) Fulfilled else Not fulfilled

- compound: "CN1CCN(CCC=C2c3ccccc3Sc3ccc(S(=O)(=O)N(C)C)cc32)CC1"
  assigned-class: "Not fulfilled"
- compound: "COc1c2c(cc3c1OCO3)C13C=C[C@H](OC)CC1N(C2)CC3O (stereo partly specified)"
  assigned-class: "Fulfilled"
- compound: "CCOc1ccc(C(=O)c2ccc(O)c(O)c2O)cc1"
  assigned-class: "Fulfilled"
- compound: "CCOc1cccc(C(=O)c2ccc(O)c(O)c2O)c1"
  assigned-class: "Fulfilled"
- compound: "CC1=C(O)C(=O)C=C2C1=CC=C1[C@@]2(C)CC[C@@]2(C)[C@@H]3C[C@](C)(C(=O)O)CC[C@]3(C)CC[C@]12C"
  assigned-class: "Fulfilled"

[ask] In the record for CCOc1ccc(C(=O)c2ccc(OC)c(O)c2O)cc1 , is normalized growth less than 1?
[reply] Not fulfilled

[ask] In the record for COc1ccc(C(=O)c2ccc(O)cc2)c(O)c1O , is normalized growth less than 1?
[reply] Fulfilled

====

- experimental-protocol: chemical genetic growth profiling, strain panel (AID 1159580);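 also: tested at 20 µM; growth read once vehicle control cultures reached saturation at 30 °C; 1 = growth at the plate median or of vehicle wells; lower values mean less growth of the strain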
- condition-set: S. cerevisiae deletion strains, growth OD, locus YER015W, strain faa2, active compounds read low
The whole screen tested about 5,500 compounds, of which about 2,000 (36%) were called active. About 18% were inconclusive and are not listed. Some of the results follow. Where a SMILES comes first, the peptide text is derived from it. Bridges are numbered along the chain shown (N, C = ends). [ ]: non-standard residue; d: D form. The star is where a group is joined. Octanoyl(6-Me) = CCC(C)CCCCC(=O)*; Dab = NCC[CH](N)C(=O)O
reported-endpoint: normalized growth
Answers are plain numbers.

These recorded examples may help you get a feel for the data.
- compound: "CC[C@@H](CO)NC(=O)[C@@H]1C=C2c3cccc4[nH]cc(c34)C[C@H]2N(C)C1"
  endpoint-result: 0.99
- compound: "CC(=O)OCC(=O)[C@@]1(O)CCC2C3CCC4=CC(=O)CC[C@]4(C)C3[C@@H](O)C[C@@]21C (stereo partly drawn)"
  endpoint-result: 1.01
- compound: "CCC(C)CCCCC(=O)NC(CCN)C(=O)NC(C(=O)NC(CCN)C(=O)NC1CCNC(=O)C(C(C)O)NC(=O)C(CCN)NC(=O)C(CCN)NC(=O)C(CC(C)C)NC(=O)C(Cc2ccccc2)NC(=O)C(CCN)NC1=O)C(C)O (stereo not drawn) ({Octanoyl(6-Me)}-[Dab]T[Dab][Dab][Dab]FL[Dab][Dab]T; lactam 4-C; configuration not given here)"
  endpoint-result: 0.992

Hi! Can you tell me normalized growth for each of these compounds?
1. NC(=O)N1c2ccccc2C=Cc2ccccc21
2. C#CC1(O)CCC2C3CCC4=CC(=O)CCC4(C)C3CCC21C (stereo not drawn)

[reply]
1.03
0.992

Hi! Can you tell me normalized growth for each of these compounds?
1. CC[C@H]1OC(=O)[C@H](C)[C@@H](O[C@H]2C[C@@](C)(OC)[C@@H](O)[C@H](C)O2)[C@H](C)[C@@H](O[C@@H]2O[C@H](C)C[C@H](N(C)C)[C@H]2O)[C@](C)(O)C[C@@H](C)[C@@H]2N[C@@H](COCCOC)O[C@H]([C@H]2C)[C@]1(C)O
2. COc1cc(/C=C/C(=O)N2CCC=CC2=O)cc(OC)c1OC

[reply]
[1, 1.01]

[ask] Please give the measured normalized growth for this compound: COc1cc(O)cc(OC)c1OC
[reply] 1
